- measurement-target: HLA-A*1101 (human)
- test-protocol: competitive inhibition of 125I-labelled standard peptide binding to purified HLA, gel filtration
property-label: binding affinity ratio (IC50 of standard peptide / IC50 of test peptide)
Give your answer as a number; write no unit.

Q) Give binding affinity ratio (IC50 of standard peptide / IC50 of test peptide) for the following binder: KSFLKGTPK (modifications not checked) [HPV18 E1 position 468 peptide …]
A) 0.0015

Q) Give binding affinity ratio (IC50 of standard peptide / IC50 of test peptide) for the following binder: WTYFDTYMR (modifications not checked) [HPV18 E1 position 536 peptide …]
A) 0.012

Q) Give binding affinity ratio (IC50 of standard peptide / IC50 of test peptide) for the following binder: NSGQKKAKR (modifications not checked) [HPV18 E1 position 119 peptide …]
A) 0.0002

Q) Give binding affinity ratio (IC50 of standard peptide / IC50 of test peptide) for the following binder: KLRAGQNHR (modifications not checked) [HPV18 E1 position 647 peptide …]
A) 0.0013

Q) Give binding affinity ratio (IC50 of standard peptide / IC50 of test peptide) for the following binder: LTTNIHPAK (modifications not checked) [HPV18 E1 position 571 peptide …]
A) 0.12

Q) Give binding affinity ratio (IC50 of standard peptide / IC50 of test peptide) for the following binder: QVLHVLKRK (modifications not checked) [HPV18 E1 position 80 peptide …]
A) 0.002

Q) Give binding affinity ratio (IC50 of standard peptide / IC50 of test peptide) for the following binder: NIHPAKDNR (modifications not checked) [HPV18 E1 position 574 peptide …]
A) 0.0002

Q) Give binding affinity ratio (IC50 of standard peptide / IC50 of test peptide) for the following binder: LILALLRYK (modifications not checked) [HPV18 E1 position 281 peptide …]
A) 0.18
